Where do the numbers come from? From patent US7622475B2.

molecular target: prostaglandin E2 type 2 (EP2) receptors (Homo sapiens, UniProt P43116)
Sequence (P43116 whole entry): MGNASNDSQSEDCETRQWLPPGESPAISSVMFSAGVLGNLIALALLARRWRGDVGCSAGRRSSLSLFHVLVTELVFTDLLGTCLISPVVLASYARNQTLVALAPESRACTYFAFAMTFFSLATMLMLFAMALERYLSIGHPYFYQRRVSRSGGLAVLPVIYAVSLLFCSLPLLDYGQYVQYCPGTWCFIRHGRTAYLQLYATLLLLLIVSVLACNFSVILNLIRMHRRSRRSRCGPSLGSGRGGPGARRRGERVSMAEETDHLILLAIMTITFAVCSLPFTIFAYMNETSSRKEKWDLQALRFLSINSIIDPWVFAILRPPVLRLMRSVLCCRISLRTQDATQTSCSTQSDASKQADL
pIC50: −log10 of the molar value.
QUANTITY_MEASURED: pIC50

>>> val("CC(C)OC(=O)CCCCCCN(CCCc1cc(Cl)cc(Cl)c1)S(C)(=O)=O")
8.18
>>> val("CC(C)(C)OC(=O)COc1cccc(CN(Cc2ccc(-n3cccn3)cc2)S(=O)(=O)c2cccnc2)c1 [Example C12, reference compound]")
8.00
>>> val("CC(C)OC(=O)COc1cccc(CN(Cc2ccc(-n3cccn3)cc2)S(=O)(=O)c2cccnc2)c1")
8.00
>>> val("CC(C)OC(=O)c1ccc(CCCN(CCOc2cc(Cl)cc(Cl)c2)S(C)(=O)=O)s1")
8.35

(1) CC(C)OC(=O)COc1cccc(CN(Cc2ccc(-c3nccs3)cc2)S(=O)(=O)c2cn(C)cn2)c1
(2) CC(C)OC(=O)c1csc(CCCN(CCCc2cccc(Cl)c2)S(C)(=O)=O)n1
(3) CC(C)OC(=O)CCc1cccc(CN(Cc2ccc(-c3ncccn3)cc2)S(=O)(=O)c2ccc(Cl)cc2)c1
Enquiry: Descending sort on pIC50 required. // rank by listing labels in the order requested
Return: 2, 3, 1
